B1: library; numbered along this chain (parent)
chain: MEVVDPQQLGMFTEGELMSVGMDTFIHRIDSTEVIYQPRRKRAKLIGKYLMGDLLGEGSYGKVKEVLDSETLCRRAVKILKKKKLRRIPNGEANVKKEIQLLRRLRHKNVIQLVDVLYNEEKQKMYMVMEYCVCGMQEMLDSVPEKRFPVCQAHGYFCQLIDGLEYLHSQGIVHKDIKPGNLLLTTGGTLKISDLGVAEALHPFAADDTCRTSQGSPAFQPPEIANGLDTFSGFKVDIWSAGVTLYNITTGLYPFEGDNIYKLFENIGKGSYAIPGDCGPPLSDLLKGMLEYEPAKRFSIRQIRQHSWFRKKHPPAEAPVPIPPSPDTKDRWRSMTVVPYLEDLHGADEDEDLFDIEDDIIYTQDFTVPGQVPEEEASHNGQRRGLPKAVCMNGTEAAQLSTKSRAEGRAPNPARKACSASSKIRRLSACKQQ

Variants of: B1
protocol details: STK11 functional score (HeLa growth suppression), rescaled enrichment; synonymous median = 1, nonsense median = 0 (normalised score)
measurement context: with HeLa; variant type: missense
STK11 functional score values by entry
Returns: the value as a bare number; no unit string appended.

Query :: # lookup: STK11 functional score of E349T
Result :: 1.51

Query :: # lookup: STK11 functional score of A93W
Result :: 1.63

Query :: # lookup: STK11 functional score of Q123A
Result :: 1.11

Query :: # lookup: STK11 functional score of A414G
Result :: 1.21

Next:
Query :: # lookup: STK11 functional score of Y246A
Result :: 1.06

Query :: # lookup: STK11 functional score of P275Y
Result :: 0.943

Query :: # lookup: STK11 functional score of L245G
Result :: -0.177

Query :: # lookup: STK11 functional score of T244K
Result :: 0.388

Query :: # lookup: STK11 functional score of L105C
Result :: 1.53

Query :: # lookup: STK11 functional score of L140F
Result :: -0.0987
